- SYSTEM_UNDER_TEST: AChE in neural stem cell spheroids (Homo sapiens, UniProt P22303)
- Sequence (P22303 32-614): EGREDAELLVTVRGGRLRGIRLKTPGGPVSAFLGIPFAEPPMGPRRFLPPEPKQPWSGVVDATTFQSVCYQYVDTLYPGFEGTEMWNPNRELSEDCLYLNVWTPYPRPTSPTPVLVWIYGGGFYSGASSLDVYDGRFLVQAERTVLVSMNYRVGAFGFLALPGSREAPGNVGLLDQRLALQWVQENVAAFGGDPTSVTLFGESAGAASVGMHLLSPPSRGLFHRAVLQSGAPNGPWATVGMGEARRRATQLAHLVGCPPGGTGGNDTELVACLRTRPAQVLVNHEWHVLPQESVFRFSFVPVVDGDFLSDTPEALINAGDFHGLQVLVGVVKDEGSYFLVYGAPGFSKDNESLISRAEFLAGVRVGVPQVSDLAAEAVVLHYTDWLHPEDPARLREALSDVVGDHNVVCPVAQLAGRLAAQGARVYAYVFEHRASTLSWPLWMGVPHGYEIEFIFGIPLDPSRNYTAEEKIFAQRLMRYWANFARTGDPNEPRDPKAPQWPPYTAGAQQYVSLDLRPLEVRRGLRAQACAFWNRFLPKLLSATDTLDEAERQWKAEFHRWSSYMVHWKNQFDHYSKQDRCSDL
- PROTOCOL_NOTES: cell-based
- MEASUREMENT_PARAMETERS: potency (IC50), Neural stem cell spheroid (48 h)
pIC50: −log10 of the molar value. Structures can show the parent of a compound that is named as a salt.
Tag: t if measured pIC50 is not below 5, f if it is.

The examples below pair each entry with its known result.
MOLECULE	CATEGORY_LABEL
CCOP(=S)(OCC)OC(Cl)C(Cl)(Cl)Cl (stereo not drawn)	f
CCOP(=O)(Sc1ccccc1)Sc1ccccc1	t
CNC(=O)O/N=C(\SC)C(=O)N(C)C	t
CCN(CC)CCOc1ccc2c(c1)C(=O)c1cc(OCCN(CC)CC)ccc1-2 [Tilorone, reference compound]	f
COc1ccc(C(=O)NCc2ccc(OCCN(C)C)cc2)cc1OC.Cl [Itopride hydrochloride, reference compound]	f

Q: Answer whether pIC50 of C=CC[N+]1([C@H]2C[C@H]3[C@@H]4CC[C@H]5C[C@H](OC(C)=O)[C@@H](N6CCCCC6)C[C@]5(C)[C@H]4CC[C@]3(C)[C@H]2OC(=O)CC)CCCCC1 [Rapacuronium bromide, reference compound] is greater than or equal to 5.
A: t

Q: Answer whether pIC50 of CN1CCCC(n2nc(Cc3ccc(Cl)cc3)c3ccccc3c2=O)CC1 (stereo not drawn) [Azelastine (hydrochloride), reference compound] is greater than or equal to 5.
A: t

Q: Answer whether pIC50 of CCOP(=S)(OCC)SCSc1ccc(Cl)cc1 is greater than or equal to 5.
A: t

Q: Answer whether pIC50 of CCOP(=S)(OCC)OP(=S)(OCC)OCC is greater than or equal to 5.
A: t

Q: Answer whether pIC50 of CN1C(=O)COc2c(C(=O)NC3CN4CCC3CC4)cc(Cl)cc21 (stereo not drawn) [Azasetron hydrochloride, reference compound] is greater than or equal to 5.
A: f

---

- SYSTEM_UNDER_TEST: recombinant human AChE (Homo sapiens)
Each entry below carries its reported Efficacy.
Kindly provide the number alone.

Examples with answers:
MOLECULE	Efficacy
C[n+]1cc2c3c(ccc2c2ccc4cc5c(cc4c21)OCO5)OCO3 [Sanguinarine]	-7.894
C=CCN1CC[C@]23CCCC[C@H]2[C@H]1Cc1ccc(O)cc13 [Levallorphan]	0
COP(=S)(Oc1cc(Cl)c(Br)cc1Cl)c1ccccc1 (centres unmarked) [Leptophos]	-83.877
O=C(Nc1cccc(C2=NCCN2)c1)Nc1cccc(C2=NCCN2)c1 [Imidocarb dipropionate, reference compound]	0
CCOP(=S)(OCC)Oc1cc(Cl)c(Br)cc1Cl [Bromophos-ethyl]	-91.453

Q: Write Efficacy of CCOP(=S)(OCC)Oc1cc(-c2ccccc2)on1 [Isoxathion] ; system used: recombinant human AChE (Homo sapiens)
A: -99.076

Q: Write Efficacy of CCOC(=O)COc1ccc2c(C)c(CCN(CC)CC)c(=O)oc2c1Cl.Cl [Cloricromen hydrochloride] ; system used: recombinant human AChE (Homo sapiens)
A: -27.609

Q: Write Efficacy of CCCCCCCCCCCCCC[n+]1ccccc1 [Tetradecylpyridinium bromide] ; system used: recombinant human AChE (Homo sapiens)
A: 0

---

The following molecules each carry a recorded Efficacy for recombinant human AChE (Homo sapiens).
Kindly provide the number alone.

Examples with answers:
MOLECULE	Efficacy
O=S(=O)([O-])SSS(=O)(=O)[O-].[K+].[K+] [Potassium tetrathionate]	-82.524
CCOP(=O)(OCC)Oc1cc(C)nc(C(C)C)n1	-95.678

Q: Write Efficacy of CCN1CCC2(CC1)COc1cc3c(cc12)N(C(=O)c1ccc(-c2ccc(-c4nnc(C)o4)cc2C)cc1)CC3.Cl [SB236057A] ; system used: recombinant human AChE (Homo sapiens)
A: 0

Q: Write Efficacy of Cc1nc(N(C)C)nc(OC(=O)N(C)C)c1C ; system used: recombinant human AChE (Homo sapiens)
A: -73.016

Q: Write Efficacy of Cl.O=C(c1ccc(F)cc1)C1CCN(CCn2c(=S)[nH]c3ccccc3c2=O)CC1 [Altanserin hydrochloride] ; system used: recombinant human AChE (Homo sapiens)
A: 0

Q: Write Efficacy of CN(C)c1ccc(C(=C2C=CC(=[N+](C)C)C=C2)c2ccc(N(C)C)cc2)cc1.[Cl-] [Methylrosaniline chloride] ; system used: recombinant human AChE (Homo sapiens)
A: 0

---

Each entry below carries its reported Efficacy.
- SYSTEM_UNDER_TEST: recombinant human AChE (Homo sapiens, UniProt P22303)
Kindly provide the number alone.

Examples with answers:
COMPOUND	Efficacy
CNC(=O)Oc1ccccc1C(C)C [Isoprocarb]	-88.562
COP(N)(=S)Oc1ccccc1C(=O)OC(C)C (stereo not shown) [Isocarbophos]	-89.537
CCOP(=O)(OCC)Oc1nc(Cl)c(Cl)cc1Cl [Chlorpyrifos oxon, reference compound]	-96.78
CCOP(=S)(OCC)OC(Cl)C(Cl)(Cl)Cl (stereo not shown) [Chlorethoxyfos]	-100.975
Cc1c(Cl)c(=O)oc2cc(OP(=O)(OCCCl)OCCCl)ccc12 [Haloxon]	-94.886
CC(C)=CCN1CC[C@@]2(C)c3cc(O)ccc3C[C@@H]1[C@@H]2C.O=C(O)CCC(=O)O [(-)-Pentazocine succinate, reference compound]	0
CNC(=O)Oc1cc(C)cc(C(C)C)c1 [Promecarb]	-98.92
Cc1cc(OC(=O)N(C)C)nn1C(=O)N(C)C [Dimetilan]	-61.098

Then this compound:
Q: Write Efficacy of CCOC(=O)CCN(SN(C)C(=O)Oc1cccc2c1OC(C)(C)C2)C(C)C [Benfuracarb] ; system used: recombinant human AChE (Homo sapiens, UniProt P22303)
A: -96.321

---

- SYSTEM_UNDER_TEST: AChE in SH-SY5Y cells (Homo sapiens, UniProt P22303)
- PROTOCOL_NOTES: cell-based
- MEASUREMENT_PARAMETERS: potency (IC50), SH-SY5Y cells monolayer
EXPERIMENTAL_ENDPOINT: pIC50
pIC50 (log units): -log10 of the concentration in mol/L.

Examples with answers:
MOLECULE	pIC50
CNC(=O)Oc1cccc2c1OC(C)(C)C2	6.54
CCOC(=O)c1cn2nc(OP(=S)(OCC)OCC)cc2nc1C	4.34
CCOP(=S)(OCC)O/N=C(\C#N)c1ccccc1	4.68
C=CC[N+]1([C@H]2C[C@H]3[C@@H]4CC[C@H]5C[C@H](OC(C)=O)[C@@H](N6CCCCC6)C[C@]5(C)[C@H]4CC[C@]3(C)[C@H]2OC(=O)CC)CCCCC1 [Rapacuronium bromide, reference compound]	4.80
CNC(=O)Oc1ccc(N(C)C)c(C)c1	5.30

Q: Give a short answer stating reported pIC50 for CCOP(=S)(OCC)Oc1cc(-c2ccccc2)on1 .
A: 4.77

Q: Give a short answer stating reported pIC50 for Cc1nc2n(c(=O)c1CCN1CCC(C(=O)c3ccc(F)cc3)CC1)CCS2 [Setoperone, reference compound] .
A: 4.80

---

- SYSTEM_UNDER_TEST: recombinant human AChE (Homo sapiens)
- PROTOCOL_NOTES: biochemical
Where a name gives a salt, the structure may show the parent alone.
Tag: Criterion met if measured Efficacy is not below -60, Criterion not met if it is.

The examples below pair each entry with its known result.
MOLECULE	SYSTEM_UNDER_TEST	CATEGORY_LABEL
CN1C(=O)COc2c(C(=O)NC3CN4CCC3CC4)cc(Cl)cc21 (stereo not drawn) [Azasetron hydrochloride, reference compound]	recombinant human AChE (Homo sapiens)	Criterion met
CCN1C(=CC=Cc2sc3ccccc3[n+]2CC)Sc2ccccc21.[I-] [3,3'-Diethylthiacarbocyanine iodide]	recombinant human AChE (Homo sapiens)	Criterion not met
CNP(=O)(OC)Oc1ccc(C(C)(C)C)cc1Cl (stereo not drawn) [Crufomate]	recombinant human AChE (Homo sapiens)	Criterion not met
C=CC[N+]1([C@H]2C[C@H]3[C@@H]4CC[C@H]5C[C@H](OC(C)=O)[C@@H](N6CCCCC6)C[C@]5(C)[C@H]4CC[C@]3(C)[C@H]2OC(=O)CC)CCCCC1 [Rapacuronium bromide, reference compound]	recombinant human AChE (Homo sapiens)	Criterion met
CCN(CC)CCNC(=O)c1c(C)[nH]c(/C=C2\C(=O)Nc3ccc(F)cc32)c1C [Sunitinib malate, reference compound]	recombinant human AChE (Homo sapiens)	Criterion not met

Q: Answer whether Efficacy of CCc1ccc(C(=O)C(C)CN2CCCCC2)cc1.Cl (stereo not drawn) [Eperisone hydrochloride, reference compound] is greater than or equal to -60.
A: Criterion met

Q: Answer whether Efficacy of Nc1c(NC/C=C\COc2cc(CN3CCCCC3)ccn2)c(=O)c1=O [Pibutidine] is greater than or equal to -60.
A: Criterion met

Q: Answer whether Efficacy of CCCCOc1ccc(C(=O)CCN2CCCCC2)cc1 [Dyclonine hydrochloride] is greater than or equal to -60.
A: Criterion met
